- measured.target: T1, PUF4 RNA-binding domain (Saccharomyces cerevisiae, UniProt P25339 537-888)
- T1 sequence: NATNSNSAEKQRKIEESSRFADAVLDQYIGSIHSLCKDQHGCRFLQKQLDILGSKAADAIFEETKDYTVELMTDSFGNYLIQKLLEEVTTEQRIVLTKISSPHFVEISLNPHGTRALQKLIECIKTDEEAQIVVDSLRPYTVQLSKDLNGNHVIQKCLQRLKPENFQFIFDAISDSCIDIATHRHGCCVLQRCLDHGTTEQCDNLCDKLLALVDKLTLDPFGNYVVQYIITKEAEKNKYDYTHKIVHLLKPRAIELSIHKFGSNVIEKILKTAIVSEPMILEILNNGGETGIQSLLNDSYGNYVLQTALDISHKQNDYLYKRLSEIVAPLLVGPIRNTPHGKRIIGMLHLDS
- experimental.details: Mg; RNA-MaP; 20 mM Na-HEPES pH 7.4, 30 mM KOAc, 0.75 mM MgCl2, 0.1% Tween-20, 5% glycerol, 0.1 mg/mL BSA, 2 mM DTT; 25 C; 0.0125-409.6 nM protein
- condition.description: tags: N-His6-TEV cleaved; C-SNAP kept, Cy3B-labelled; label: tethered on chip by stalled RNA polymerase
pKd: −log10 of the molar value.
The label depends only on pKd: met if it is at least 7, not met if it is smaller.

{"binder": "Id_ii_S4_P5E.4_K5.3_C5.2_[C-2T]_[T-1A]_H5.3_A5.1_F5.1_T5.2_[A12C] (ssRNA) RNA: UUUGACAACUGAUCGUUCUUUCUUAACACUUAUUAUCUUCUUUCUCGAUCAGUUGUCUUU", "class.name": "not met"}
{"binder": "Ie_S2_P5E.1_K5.1_C5.1_H5.1_[+4CTT]_A5.1_F5.1_T5.1 (ssRNA) RNA: UUUGAUUAAUAUGAUAUCGUUCUUUCUUGUACUUUUAUUAUUCUUUCUCGAUAUCAUAUUAAUCUUU", "class.name": "met"}
{"binder": "UCUCUUCGUGUAUAUAGGUCUCUU (ssRNA) [Id_ii_S1_P3E.2_K3.1_C3.2_[T-1G]_H3.1_A3.1_F3.1_T3.2_[T9G]_[A10G]]", "class.name": "met"}
{"binder": "Id_ii_S2_P3E.2_K3.1_C3.2_[T-1A]_H3.1_A3.1_F3.1_T3.2_[A10T] (ssRNA) RNA: UUUGAUUAAUAUGAUAUCGUUCUUUCUCAUGUAUAUAUUUUCUUUCUCGAUAUCAUAUUAAUCUUU", "class.name": "met"}

Exercise: Confirm if pKd reported for the binder Ie_S4_P5E.1_K5.1_C5.1_H5.1_A5.1_F5.1_[+9CTCTC]_T5.1 (ssRNA) RNA: UUUGACAACUGAUCGUUCUUUCUUGUAUUAUUCUCUCAUUCUUUCUCGAUCAGUUGUCUUU is 7 or above.
Solution: met

Exercise: Record: UCUCUUUUUAUGUAUCUCUU (ssRNA) [Ib_S1_P3E.1_K3.1_C3.1_H3.1_[G2T]_A3.1_[A6G]_F3.1_T3.1]
Solution: not met

Exercise: Record: Ic_S2_P5E.1_K5.1_C5.1_H5.1_A5.1_[T5A]_[T6A]_[A7T]_F5.1_[T8A]_[T9A]_[A10C]_T5.1 (ssRNA) RNA: UUUGAUUAAUAUGAUAUCGUUCUUUCUUGUAAAUAACUUCUUUCUCGAUAUCAUAUUAAUCUUU
Solution: met

Values compiled from paper PMC9352680.
